Tested on: K-562 leukemia
Assay: NCI tumour cell line growth inhibition, 48 h
So I've got a bunch of compounds here, and I need their TGI values.

With K-562 leukemia as the test system, O=C1c2ccccc2C2(O)c3cc4ccccc4cc3OC12O (stereo not given) showed TGI of > 100 µM

The compound "O=C(Nc1cc(Cl)ccc1Cl)c1cc2cccc(Cl)c2oc1=O" , when measured on K-562 leukemia, yielded TGI of > 100 µM

Simply: CC(C)=CCc1cc(O)cc2c1OC(C=C(C)C)C1=C2C(=O)C2=C(NCCS2(=O)=O)C1=O (stereo not given) , K-562 leukemia, TGI = 14.6 µM

Measured TGI for this entry CC(NNC(=O)CC(=O)N(C(=O)c1ccccc1)c1ccc(Cl)cc1)c1cc2ccccc2oc1=O (stereo not given) on K-562 leukemia: > 10 µM

TGI value, target or system K-562 leukemia, for "N#Cc1c(-c2ccc(F)cc2)c(-c2ccc(F)cc2)nn(CCO)c1=O" : > 100 µM

Result for "COc1ccncc1C#Cc1cncc(C(=O)Nc2ccc(CN3CCN(C)CC3)c(C(F)(F)F)c2)c1" , tested on K-562 leukemia, TGI: > 100 µM

// compound "O=C1NC(=S)NNC12c1ccccc1-c1ccccc12" , assay K-562 leukemia, TGI value: > 10 µM

The recorded TGI with K-562 leukemia for "O=C1[C@@H]2C3c4ccccc4C([C@@H]2C(=O)N1c1ccccc1)S3(=O)=O" was > 100 µM

Measured on K-562 leukemia, "Oc1ccc(-c2nc(-c3ccc(F)cc3)c(-c3ccc4ccccc4n3)[nH]2)cc1" has a documented TGI of > 100 µM

Entry "COc1ccccc1N1CCN(CCCn2c(=O)c3c(OC)nc(C)cc3c(=O)n2-c2ccccc2)CC1" under K-562 leukemia had TGI of > 100 µM

====

System: ACHN renal
Assay: NCI tumour cell line growth inhibition, 48 h
For each entry below, report its TGI value.

Briefly, TGI measured for CC(NNC(=O)CC(=O)N(C(=O)c1ccccc1)c1ccc(Cl)cc1)c1cc2ccccc2oc1=O (stereo not drawn) : > 10 µM

The molecule listed as CC(C)(C)c1cc(C(CO)OCCOCCO)cc(C(C)(C)C)c1O (stereo not drawn) shows TGI equal to > 100 µM

Form: molecule = "O=C(CCc1cc(O)cc(O)c1)NCCc1cc(O)cc(O)c1" ; TGI = > 100 µM

====

For each entry below, report its TGI value.
Test system: DU-145 prostate
Assay: NCI tumour cell line growth inhibition, 48 h

Readout TGI for Cc1c(CNc2ccc(C(=O)NC(CC(=O)O)C(=O)O)cc2)ccc2nc(N)nc(N)c12 (stereo not given) , test system DU-145 prostate, was > 1000 µM

Form: item "O=[N+]([O-])c1cc2c(c3nonc13)OCCCCO2" ; test system DU-145 prostate; TGI: 28.2 µM

TGI on DU-145 prostate for "CCCNC(=S)/N=C/c1c(O)c2ccccc2[nH]c1=O" is > 100 µM

Measured TGI (DU-145 prostate), entry CCOC(=O)c1cc(C2(O)CCN(CC(C)CC)C2=O)c(-c2cc(C)no2)[nH]1 (stereo not given) : > 100 µM

Item CCOC(=O)C1=C(N)Oc2ccc(Br)cc2C1C(C#N)C(=O)OCC (stereo not given) was tested on DU-145 prostate; the reported TGI is > 100 µM

The recorded TGI with DU-145 prostate for "C1CSCCSCCS1" was > 100 µM

Bench note, DU-145 prostate: entry CC12CC(C#N)(C#N)C(C#N)(CO1)C(=N)O2 (stereo not given) , its TGI = > 100 µM

Note to self: TGI of Oc1cc(O)c2c(c1)OC(c1ccc(O)c(O)c1)C(OC1(c3cc(O)c(O)c(O)c3)Oc3cc(O)cc(O)c3C(O)C1O)C2 (stereo not given) with DU-145 prostate was > 75.5 µM

Lab entry: DU-145 prostate assay, molecule "CC(=O)Nc1ccc(-c2nc3cc(Cl)ccc3o2)cc1" , TGI = > 50 µM

Item: "O=c1c2ccccc2sc2cccc(NCCCN3CCN(CCCNc4cccc5sc6ccccc6c(=O)c45)CC3)c12" | System: DU-145 prostate | TGI: > 100 µM

====

Test system: EKVX NSCLC
Experiment: NCI tumour cell line growth inhibition, 48 h
Give measured TGI for each item. Keep answers brief.

Reported TGI for Cc1ccc(NC(=O)C2C(=O)N(c3ccc(C)c(C)c3)C(=O)C2N=N)cc1C (stereo not given) was > 100 µM

Per the records, this molecule ( CC(=O)O[C@H]1CCC2[C@@H]3CCC4=C(O)c5nocc5C[C@]4(C)C3CC[C@@]21C (stereo not given in full) ) has TGI equal to > 100 µM

Memo: "CC1(C)OC(=C(C#N)C#N)C(C#N)=C1/C=C/c1ccncc1" , reported TGI: 5.46 µM

Entry CC[C@]1(Cc2ccc(OC)c(OC)c2)[C@@H]2C[C@@H](C3OCCO3)ON2O[C@H](OC2CCCC2(c2ccccc2)c2ccccc2)[C@@H]1OC(C)=O (stereo not given in full) ; TGI = 44.6 µM

Looking up "COC(=O)CN(C)P(=O)(N1CC1)N1CC1" , I see its TGI listed as > 100 µM

TGI recorded for this molecule, "CSc1nncc2[nH]c(C)nc12" , is > 100 µM

The value of TGI measured for the molecule "Nc1nc(N)c(N=Nc2ccc([As](=O)(O)O)cc2)c(=O)[nH]1" turned out to be > 100 µM

Query "CC#C[P+](c1ccccc1)(c1ccccc1)c1ccccc1" yields TGI of 22.5 µM

TGI reading for "COc1ccc(CCN=C2OCc3ccccc32)cc1OC" : > 100 µM

Record O=C(NC(CO)Cc1ccc(Oc2cc(CC(CO)NC(=O)OCc3ccccc3)ccc2OC(=O)OCc2ccccc2)cc1)OCc1ccccc1 (stereo not given) . Reported TGI: 47.8 µM

====

Test system: SNB-19 CNS
Test: NCI tumour cell line growth inhibition, 48 h
Kindly supply the reported TGI values for the records listed here.

TGI reading for "O=C(O)[C@H](NS(=O)(=O)c1ccc2ccccc2c1)c1ccccc1" : > 100 µM

For "CCc1cccc(C)c1NC(=O)C(=O)Cc1nc2ccccc2o1" the compound record lists TGI as > 100 µM

For this compound ( CCCCCC(/C=C/C1CCC(=O)C1CC#C[Si](C)(C)C)OCc1ccccc1 (stereo not given) ), measured TGI is > 84.8 µM

Entry under test: "O=[N+]([O-])c1ccc(S(=O)(=O)N=Ic2ccccc2)cc1" . Its TGI was > 100 µM

Lab note: measured TGI of "CC1(C)OC(=C(C#N)C#N)C(C#N)=C1/C=C/c1ccncc1" was 6.16 µM

O=C(NC(CO)Cc1ccc(Oc2cc(CC(CO)NC(=O)OCc3ccccc3)ccc2OC(=O)OCc2ccccc2)cc1)OCc1ccccc1 (stereo not given) has a reported TGI of > 100 µM

In plain terms, CCOC(=O)NC1CN2CCC1CC2 (stereo not given) has a documented TGI of > 100 µM

The reported TGI of the compound "O=C(CSc1nnc(-c2ccc(N=Cc3ccc(Cl)cc3)cc2)o1)Nc1ccc(Cl)cc1" was > 100 µM

Entry "Cn1c(N)c2c3c(sc2nc1=O)CCCC3" ; TGI = > 75 µM

So, CCN(CC)CCOc1ccc(/C=C2\CC3C4CC=C5C[C@@H](O)CC[C@]5(C)C4CC[C@]3(C)C2=O)cc1OC (stereo not given in full) ? Its TGI was > 64 µM

====

Provide the recorded TGI for the entries that follow.
Test system: OVCAR-5 ovarian
Test: NCI tumour cell line growth inhibition, 48 h

Tested on OVCAR-5 ovarian, the item "CCCCCCNC(=O)c1nc(-c2ccccc2)oc1Cc1ccc(OP(=O)(O)O)cc1" showed TGI equal to 28.5 µM

Considering C[C@@H]1CCC2[C@@H](C)[C@@H](OCCO[C@H]3OC4O[C@@]5(C)CCC6[C@H](C)CCC([C@H]3C)[C@@]46OO5)OC3O[C@@]4(C)CCC1[C@]32OO4 (some centres undefined) , its TGI with OVCAR-5 ovarian was recorded as > 100 µM

Summary: "CC1=C2CCCC2=C/C(=N/Nc2ccc([N+](=O)[O-])cc2[N+](=O)[O-])CC1" , OVCAR-5 ovarian, TGI = > 100 µM

Noted TGI for "Nc1nc2c(ncn2Cc2ccc(CO)cc2)c(=O)[nH]1" , tested on OVCAR-5 ovarian: > 100 µM

Record "CCOC(=O)C1(c2ccccc2)CCC(=O)CC1" ; system OVCAR-5 ovarian; TGI = > 100 µM

// assay OVCAR-5 ovarian, entry COc1cccc2c1C(=O)c1c(O)c3c(c(O)c1C2=O)CC(O)(/C(C)=N/NC(=O)CCC(=O)N/N=C(\C)C1(O)Cc2c(O)c4c(c(O)c2C(OC2CC(N)C(O)C(C)O2)C1)C(=O)c1c(OC)cccc1C4=O)CC3OC1CC(N)C(O)C(C)O1 (centres undefined) , TGI value = 3.68 µM

The compound COc1ccc(C(OC(C)=O)C2C(=C(C#N)C#N)c3ccccc3C2=C(C#N)C#N)cc1 (centres undefined) , tested on OVCAR-5 ovarian, showed TGI of 38.3 µM

Known value: OVCAR-5 ovarian TGI of the compound COc1ccc(CN(Cc2ccc(OC)cc2)C(=O)CC2(O)C=CCC2)cc1 (centres undefined) equals > 100 µM

The measured TGI that "O=c1cc2oc3cc(O)c(O)cc3c(-c3ccccc3O)c-2cc1O" showed for OVCAR-5 ovarian is > 100 µM

// compound "CC#C[P+](c1ccccc1)(c1ccccc1)c1ccccc1" , assay OVCAR-5 ovarian, TGI value: 22 µM

Summary line: CCc1c(OC(C)=O)c2c(NC3OC(COC(C)=O)C(OC(C)=O)C(OC(C)=O)C3OC(C)=O)nc(OC)nc2oc1=O (centres undefined) , OVCAR-5 ovarian, reported TGI = > 100 µM

The reported OVCAR-5 ovarian TGI of CN1CCN(CN2C(=O)C3C4C=CC(C3C2=O)C2C(=O)N(CN3CCN(C)CC3)C(=O)C42)CC1 (centres undefined) is > 100 µM

Record "N#C/C=C(\c1ccc([N+](=O)[O-])cc1)n1nnc2cc(Cl)c(Cl)cc21" / OVCAR-5 ovarian, TGI recorded as 3.99 µM

// TGI (OVCAR-5 ovarian) for "CN(C)c1c([O-])c(=[N+](C)C)c1=O" = > 100 µM

I looked up "Cc1ccsc1/C=N/Nc1ccc2ccccc2n1" and its TGI for OVCAR-5 ovarian was > 100 µM

Recorded TGI for "CCOP(=O)(O)C(C)(C)NC" on OVCAR-5 ovarian was > 100 µM

Sample CC(NNC(=O)CC(=O)N(C(=O)c1ccccc1)c1ccc(Cl)cc1)c1cc2ccccc2oc1=O (centres undefined) , system: OVCAR-5 ovarian. Its TGI is > 10 µM

Test item "O=C(O)c1cccnc1" ; OVCAR-5 ovarian; reported TGI was > 100 µM

# TGI measured on OVCAR-5 ovarian for item Cc1ccc(-c2c3c(n(C4OC(CO)C(O)C(O)C4O)c(=S)c2C#N)CC(C)(C)CC3=O)cc1 (centres undefined) = > 100 µM
